# TARGET: HLA-A*24:02
# PROCEDURE SUMMARY: IEDB peptide-MHC binding, purified MHC/competitive/radioactivity; filed as Kd, often an IC50 or EC50 that approximates it; bounds were set here for any values at or beyond the usual limits of such assays
# CONDITION SET: source organism: Mammarenavirus juninense
pKd: −log10 of the molar value.
EXPERIMENTAL ENDPOINT: pKd

Find the measured pKd: item `FYQKTGEKS` , target or system HLA-A*24:02.
≤ 4.23

---

# TARGET: HLA-A*29:02
# PROCEDURE SUMMARY: IEDB peptide-MHC binding, purified MHC/competitive/radioactivity; filed as Kd, often an IC50 or EC50 that approximates it; bounds were set here for any values at or beyond the usual limits of such assays
# CONDITION SET: source organism: Mammarenavirus guanaritoense
pKd: −log10 of the molar value.
EXPERIMENTAL ENDPOINT: pKd

ESALNISGY; ≤ 4.45
AIFFTTSLF; 6.56

Now turn to the next sequence.
Requested field: pKd. Item: `CLERWMLVA`
≤ 4.10
